Tgt: pooled human IgG (human IgG1,2,3 and 4)
Metric: Enzyme Activity Endpoint Assay: IgG (ng/µL)
Use ng/µL as the unit, but write only the number.

### Prompt Give a short answer stating reported Enzyme Activity Endpoint Assay: IgG for PRT-506 (protein) MITSVWTKGVTPPTDFIKGEDVFHAPYKAGQGWYDITKTFNGKDDLLCGAATAGNMLHWWFDQNKEEIEAYLKKHPEKQKIMFGDQELLDVRKVINTKDSQTNSALFNYFKDKAFPNLSARRLGVMPDLVLDMFINGYYLNVYKTQTTDVNRTYQTKDRRGGIFDAVFTRGDQSKLLTERHDFKEKTLKEISDLIKQELTEGKALGLSHTYANVRINHVINLWGADFDSNGNLEAIYVTDSDSNASIGMKKYFVGVNSAGKVAISAKEIKEDNIGAQVLGLFTLSTGQDIWNQTNLEHHHHHH .
### Response 43
